Listed below: Vd values for each entry.
- Test: Bioavailability / pharmacokinetic study in male rats (IV and PO)
- Assay type: in vivo
- Reported Conditions: rat, plasma, payload when dosed as payload, IV, read-out: Vdss
- Method: Example 14 is a prodrug form of Example 1. Examples 19 to 22 and 24 to 26 are prodrugs of example 18. […] Example 19 was formulated in 0.9% w/v saline pH 4 (adjusted with 1 M HCl) for IV dosing. […] Absolute bioavailability was determined by comparing the PO dose normalized AUC of Example 18 when dosed as Example 19, versus the dose normalized IV AUC of Example 18 when dosed as Example 18. Where appropriate, measured, not nominal, doses were used in the calculation. […]
Report the value in L/kg with no unit label.

NC[C@@H](CCCB(O)O)[C@H](N)C(=O)O ... 0.46

**Q:** So what's the measured Vd for this one? NC[C@H](CCCB(O)O)[C@H](N)C(=O)O
**A:** 0.38

###

Listed below: clearance values for each entry.
- Test: Bioavailability / pharmacokinetic study in male rats (IV and PO)
- Assay type: in vivo
- Reported Conditions: rat, plasma, payload when dosed as payload, IV
Report the value in L/h/kg with no unit label.

NC[C@@H](CCCB(O)O)[C@H](N)C(=O)O ... 0.496

Next molecule, please.
**Q:** So what's the measured clearance for this one? NC[C@H](CCCB(O)O)[C@H](N)C(=O)O
**A:** 0.438

###

- Test: Bioavailability / pharmacokinetic study in male rats (IV and PO)
- Type: in vivo
- Reported Conditions: rat, plasma, 5 mg/kg, pro-drug when dosed as pro-drug, PO vs IV
Listed below: bioavailability values for each entry.
Report the value in % with no unit label.

These recorded examples may help you get a feel for the data.
CC[C@H](C)[C@H](N)C(=O)NC[C@H](CCCB(O)O)[C@H](N)C(=O)O ... 4.5
NCC(=O)NC[C@H](CCCB(O)O)[C@H](N)C(=O)O ... 6.4
CC(C)[C@H](N)C(=O)NC[C@H](CCCB(O)O)[C@H](N)C(=O)O ... 8.3
CC[C@H](N)C(=O)NC[C@H](CCCB(O)O)[C@H](N)C(=O)O ... 1.5

Next molecule, please.
**Q:** So what's the measured bioavailability for this one? C[C@H](N)C(=O)NC[C@H](CCCB(O)O)[C@H](N)C(=O)O
**A:** 5.1

###

- System Tested: Human Arginase 2 (Homo sapiens)
- Sequence (P78540 23-354): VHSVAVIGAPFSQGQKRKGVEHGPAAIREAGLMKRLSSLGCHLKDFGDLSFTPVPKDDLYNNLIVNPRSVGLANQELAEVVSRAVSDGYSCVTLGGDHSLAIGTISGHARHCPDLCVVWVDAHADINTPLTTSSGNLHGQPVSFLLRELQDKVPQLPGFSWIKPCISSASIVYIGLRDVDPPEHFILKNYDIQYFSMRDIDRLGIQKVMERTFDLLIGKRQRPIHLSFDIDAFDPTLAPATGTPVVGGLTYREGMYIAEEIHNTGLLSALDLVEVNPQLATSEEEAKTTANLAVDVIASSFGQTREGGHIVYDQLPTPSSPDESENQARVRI
- Test: Human Arginase 2 enzyme inhibition (thioarginine/DTNB absorbance at 412 nm)
- Reported Conditions: recombinant enzyme 5 nM, 60 min, room temperature
pIC50: −log10 of the molar value.
Label scheme for pIC50: lower than 6 is NO, 6 and above is YES.

Answered examples (5):
C[C@H](N)C(=O)NC[C@@H](CCCB(O)O)[C@H](N)C(=O)O ... YES
CC[C@H](C)[C@H](N)C(=O)NC[C@H](CCCB(O)O)[C@H](N)C(=O)O ... YES
CC[C@H](N)C(=O)NC[C@@H](CCCB(O)O)[C@H](N)C(=O)O ... YES
N[C@H](C(=O)O)[C@H](CCCB(O)O)CN1CCCCC1 ... NO
NCC(=O)NC[C@H](CCCB(O)O)[C@H](N)C(=O)O ... YES

**Q:** Please indicate if the recorded pIC50 for CN(C)C[C@@H](CCCB(O)O)[C@H](N)C(=O)O meets or exceeds 6.
**A:** NO

**Q:** Ok, now CC(C)(C)[C@H](N)C(=O)NC[C@H](CCCB(O)O)[C@H](N)C(=O)O
**A:** YES

**Q:** Ok, now NC(=O)NC[C@@H](CCCB(O)O)[C@H](N)C(=O)O
**A:** NO

**Q:** Ok, now CNC(=O)[C@@H](CCCB(O)O)[C@H](N)C(=O)O
**A:** NO

**Q:** Ok, now N[C@H](C(=O)O)[C@H](CCCB(O)O)CN1CCOCC1
**A:** NO

**Q:** Ok, now CC(C)[C@H](N)C(=O)NC[C@H](CCCB(O)O)[C@H](N)C(=O)O
**A:** YES

**Q:** Ok, now CC(C)[C@H](N)C(=O)NC[C@@H](CCCB(O)O)[C@H](N)C(=O)O
**A:** YES
